Heads up, these compounds all have IC50 values measured for UniProt:Q9HBH9.
Sequence (Q9HBH9 whole entry): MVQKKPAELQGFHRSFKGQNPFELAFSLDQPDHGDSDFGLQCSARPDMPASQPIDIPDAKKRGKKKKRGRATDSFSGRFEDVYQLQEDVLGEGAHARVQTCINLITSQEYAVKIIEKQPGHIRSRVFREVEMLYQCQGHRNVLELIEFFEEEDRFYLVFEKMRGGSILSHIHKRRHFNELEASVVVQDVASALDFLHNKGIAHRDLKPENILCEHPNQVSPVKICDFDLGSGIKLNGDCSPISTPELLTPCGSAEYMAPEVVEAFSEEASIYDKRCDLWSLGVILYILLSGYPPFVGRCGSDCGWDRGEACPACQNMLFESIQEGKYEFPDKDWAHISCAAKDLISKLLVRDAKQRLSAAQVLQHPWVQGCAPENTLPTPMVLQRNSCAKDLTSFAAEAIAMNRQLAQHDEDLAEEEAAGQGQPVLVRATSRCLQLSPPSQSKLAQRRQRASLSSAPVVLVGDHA
measured metric: IC50

1. CC(=O)N(C)c1ccnc(Nc2cc(Nc3nc4c(s3)C(=O)NC43CCCCC3)ncn2)c1 | 0.0001 to 0.01 µM
2. O=C1NC2(CCCCC2)c2cc(Nc3ncnc4[nH]ncc34)sc21 | 0.0001 to 0.01 µM
3. O=C1NC2(CCCCC2)c2cc(Nc3ncnc4[nH]cnc34)sc21 | 0.0001 to 0.01 µM
4. Cc1cc(Nc2cc(N[C@@H]3CCOC3)ncn2)[n+]([O-])c2c1C(=O)NC21CCCCC1 | 0.01 to 0.1 µM
